The measurements presented in this section are drawn from patent US12157746B2.

target: hERG K+ channel (Homo sapiens, UniProt Q12809); construct: expressed in transfected cells; host or cells: CHO (Chinese hamster ovary) cells, CHOhERG; assay: hERG channel inhibition assay; assay type: cell-based; conditions: human, CHO cells stably expressing hERG, patch-clamp (voltage-clamp, whole-cell)
Sequence (Q12809 whole entry): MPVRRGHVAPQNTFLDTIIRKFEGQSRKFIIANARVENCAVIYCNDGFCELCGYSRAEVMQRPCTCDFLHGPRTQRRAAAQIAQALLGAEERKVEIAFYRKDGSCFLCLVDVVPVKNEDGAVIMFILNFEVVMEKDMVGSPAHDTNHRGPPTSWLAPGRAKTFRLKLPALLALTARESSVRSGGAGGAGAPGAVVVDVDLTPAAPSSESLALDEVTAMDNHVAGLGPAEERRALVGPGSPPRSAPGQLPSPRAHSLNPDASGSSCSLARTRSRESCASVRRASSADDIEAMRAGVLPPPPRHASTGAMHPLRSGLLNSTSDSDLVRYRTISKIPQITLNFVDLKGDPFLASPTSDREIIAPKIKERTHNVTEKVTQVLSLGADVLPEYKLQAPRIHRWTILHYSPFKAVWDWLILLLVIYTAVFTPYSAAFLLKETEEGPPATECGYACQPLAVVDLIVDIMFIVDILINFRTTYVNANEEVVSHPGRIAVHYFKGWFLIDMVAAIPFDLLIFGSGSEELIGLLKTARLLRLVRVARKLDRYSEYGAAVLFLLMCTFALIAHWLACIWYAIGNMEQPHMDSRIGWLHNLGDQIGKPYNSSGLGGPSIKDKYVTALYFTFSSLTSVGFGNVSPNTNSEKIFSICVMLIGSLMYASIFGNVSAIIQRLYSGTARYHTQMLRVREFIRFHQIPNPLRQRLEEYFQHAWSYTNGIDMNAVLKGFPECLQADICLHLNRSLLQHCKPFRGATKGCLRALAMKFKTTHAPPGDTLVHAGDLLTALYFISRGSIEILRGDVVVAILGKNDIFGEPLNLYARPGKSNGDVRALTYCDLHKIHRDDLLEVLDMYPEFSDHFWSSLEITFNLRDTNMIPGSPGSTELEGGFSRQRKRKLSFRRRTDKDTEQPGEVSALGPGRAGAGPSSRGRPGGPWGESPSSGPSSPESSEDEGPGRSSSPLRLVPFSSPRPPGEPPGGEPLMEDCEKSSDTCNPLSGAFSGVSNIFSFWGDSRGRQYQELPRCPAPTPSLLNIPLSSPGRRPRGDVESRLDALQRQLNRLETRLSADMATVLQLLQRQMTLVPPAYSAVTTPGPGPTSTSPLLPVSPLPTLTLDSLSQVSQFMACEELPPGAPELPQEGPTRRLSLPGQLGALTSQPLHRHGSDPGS
reported_metric: IC20

Here's what some known entries look like.
molecule="C[C@@H]1CN(c2ccc(C#N)c3ncccc23)CC2c3ccc(N4C[C@H](N)[C@@H](O)C4)cc3CN21 (relative stereo)" target_or_test_system="hERG K+ channel (Homo sapiens, UniProt Q12809)" reported_metric=IC20 result="> 10 µM"
molecule="C[C@@H]1CN(c2ccc(C#N)c3ncccc23)C[C@@H]2c3ccc(N4C[C@H](N)[C@@](C)(O)C4)cc3CN12 [Example 45B]" target_or_test_system="hERG K+ channel (Homo sapiens, UniProt Q12809)" reported_metric=IC20 result="> 10 µM"

Q: Answer with the recorded IC20 for the molecule listed here: CO[C@@H]1CNC[C@@H]1Nc1ccc2c(c1)CN1[C@H](C)CN(c3ccc(C#N)c4ncccc34)C[C@H]21
A: > 10 µM

Q: Given C[C@H]1CN(c2ccc(C#N)c3ncccc23)C[C@H]2c3ccc(N4CCNCC4)cc3CN12 , respond with its IC20.
A: > 10 µM

Q: In one line, give reported IC20 of the entry C[C@@H]1CN(c2ccc(C#N)c3ncccc23)C[C@@H]2c3ccc(N4CCOC[C@@H](N)C4)cc3CN12 [Example 54B] .
A: > 10 µM

Q: Report measured IC20; entry is CN[C@H]1CN(c2ccc3c(c2)CN2[C@H](C)CN(c4ccc(C#N)c5ncccc45)C[C@H]32)C[C@@H]1O
A: 6.7 µM

Q: Please give the documented IC20 of C[C@@H]1CN(c2ccc(C#N)c3ncccc23)C[C@@H]2c3ccc(NCCN(C)C)cc3CN12
A: 5 µM
